# Lookup of reported self-cleavage kobs at 2500 uM GlcN6P keyed by entry
B1: glmS ribozyme (parent)
chain: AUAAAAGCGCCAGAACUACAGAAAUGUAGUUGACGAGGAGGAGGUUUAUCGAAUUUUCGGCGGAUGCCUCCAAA

Variants of: B1
test: self-cleavage kobs at 2500 uM GlcN6P; higher = faster cleavage; RNA array
measurementParameters: with glucosamine-6-phosphate
This sample holds only a part of the variants without activity.
Supply the numeric figure in s⁻¹, leaving out any unit text.

Entry G13U A53G — recorded self-cleavage kobs at 2500 uM GlcN6P = 0.000631

For record A12U G66U the listed self-cleavage kobs at 2500 uM GlcN6P is 0.00319

Per the record, A42G C71U has self-cleavage kobs at 2500 uM GlcN6P of 0.0147

get_value(item= A15U G41A , readout=self-cleavage kobs at 2500 uM GlcN6P) returns 0.000147

Noted for A14U G29A U47G C50U A53C C70G : its self-cleavage kobs at 2500 uM GlcN6P reads 0.000165

// A53U U54C : self-cleavage kobs at 2500 uM GlcN6P value = 0.00897

Next:
// self-cleavage kobs at 2500 uM GlcN6P lookup, variant = C10A G66A C68A , result: 5.96e-05
